Molecular target: HDAC6 (Homo sapiens, UniProt Q9UBN7)
Sequence (Q9UBN7 whole entry): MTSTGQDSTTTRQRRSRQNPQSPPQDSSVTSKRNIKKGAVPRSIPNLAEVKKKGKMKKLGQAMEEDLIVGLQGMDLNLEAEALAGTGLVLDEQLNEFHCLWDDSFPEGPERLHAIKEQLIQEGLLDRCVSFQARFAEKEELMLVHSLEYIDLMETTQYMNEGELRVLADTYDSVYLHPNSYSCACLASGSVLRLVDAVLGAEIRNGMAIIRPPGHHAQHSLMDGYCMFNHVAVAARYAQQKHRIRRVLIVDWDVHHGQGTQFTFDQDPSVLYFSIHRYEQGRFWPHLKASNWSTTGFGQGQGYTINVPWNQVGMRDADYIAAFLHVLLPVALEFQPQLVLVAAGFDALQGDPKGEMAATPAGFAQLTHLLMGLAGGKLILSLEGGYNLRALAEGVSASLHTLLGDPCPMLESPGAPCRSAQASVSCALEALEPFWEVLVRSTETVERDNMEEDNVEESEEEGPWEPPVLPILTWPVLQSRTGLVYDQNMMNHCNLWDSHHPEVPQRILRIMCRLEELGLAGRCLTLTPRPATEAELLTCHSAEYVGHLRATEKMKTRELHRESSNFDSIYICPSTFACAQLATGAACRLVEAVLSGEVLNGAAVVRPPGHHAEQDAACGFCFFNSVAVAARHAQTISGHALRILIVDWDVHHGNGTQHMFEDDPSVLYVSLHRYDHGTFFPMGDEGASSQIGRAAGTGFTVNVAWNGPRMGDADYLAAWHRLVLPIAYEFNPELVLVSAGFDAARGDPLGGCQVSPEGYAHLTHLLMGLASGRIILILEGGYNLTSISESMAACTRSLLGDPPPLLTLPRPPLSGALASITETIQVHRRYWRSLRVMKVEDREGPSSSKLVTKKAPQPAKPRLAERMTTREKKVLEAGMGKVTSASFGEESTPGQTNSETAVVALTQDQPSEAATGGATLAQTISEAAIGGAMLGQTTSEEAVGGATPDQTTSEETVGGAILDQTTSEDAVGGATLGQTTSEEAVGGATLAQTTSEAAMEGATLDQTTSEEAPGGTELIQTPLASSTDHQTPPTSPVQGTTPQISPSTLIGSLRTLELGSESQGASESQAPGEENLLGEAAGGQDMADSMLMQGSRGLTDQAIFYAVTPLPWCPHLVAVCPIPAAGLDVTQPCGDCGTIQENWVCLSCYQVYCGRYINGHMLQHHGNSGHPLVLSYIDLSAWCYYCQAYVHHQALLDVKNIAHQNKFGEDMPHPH
Test: HDAC enzyme activity in vitro
Format: biochemical
pIC50: −log10 of the molar value.
property name: pIC50

cpd smiles: CN(Cc1nc2c(N3CCOCC3)nc(-c3ccc(N)cc3)nc2n1C)c1ncc(C(=O)NO)cn1.CS(=O)(=O)O
val: 7.94

----------
Assay: Pharmacokinetics, intravenous
Type: in vivo, Beagle dogs
Conditions: both sexes, Beagle, dog, plasma, 3 mg/kg
property name: AUC(0-t)

cpd smiles: CN(Cc1nc2c(N3CCOCC3)nc(-c3ccc(N)cc3)nc2n1C)c1ncc(C(=O)NO)cn1.CS(=O)(=O)O
val: 713 ng·h/mL
